The reader will find reported MIC values listed item by item below.
Test system: Klebsiella pneumoniae
Test: Antibacterial activity against Klebsiella pneumonia by broth microdilution method
Assay type: functional
I only need the number, in µg/mL, no unit after it.

Some compounds with recorded MIC:
INSERT INTO results (compound, experimental_system, obs_value) VALUES
  ('Cc1ncc([N+](=O)[O-])n1CCN1C(=O)C(=O)c2ccccc21', 'Klebsiella pneumoniae', 64),
  ('O=C1C(=O)N(CCn2nnc3ccccc32)c2ccccc21', 'Klebsiella pneumoniae', 256),
  ('Cc1ccc(C(=O)/C=C2\C(=O)N(CCn3cncn3)c3ccccc32)cc1', 'Klebsiella pneumoniae', 256),
  ('O=C1C(=O)N(CCn2ccnn2)c2ccccc21', 'Klebsiella pneumoniae', 256),
  ('O=C1C(=O)N(CCn2cnc3ccccc32)c2ccccc21', 'Klebsiella pneumoniae', 128),
  ('Cc1ccc(C(=O)CC2(O)C(=O)N(CCn3cncn3)c3ccccc32)cc1 (stereo not given)', 'Klebsiella pneumoniae', 256),
  ('O=C(CC1(O)C(=O)N(CCn2cncn2)c2ccccc21)c1ccccc1 (stereo not given)', 'Klebsiella pneumoniae', 256),
  ('O=C1C(O)c2ccccc2N1CCn1cncn1 (stereo not given)', 'Klebsiella pneumoniae', 128);

Query: Report MIC for CC(=O)CC1(O)C(=O)N(CCn2cncn2)c2ccccc21 (stereo not given) tested on Klebsiella pneumoniae.
Response: 256

Query: What would you report for "CCCc1nccn1CCN1C(=O)C(=O)c2ccccc21" ?
Response: 128

---

This section presents molecules with their documented MIC values.
Test system: Staphylococcus aureus
Experiment: Antibacterial activity against Staphylococcus aureus ATCC 29213 by broth microdilution method
Assay type: functional
Write the answer as a number in µg/mL, unit excluded.

INSERT INTO assay_data (molecule, obs_value) VALUES
  ('O=C1C(=O)N(CCn2cnc([N+](=O)[O-])c2)c2ccccc21', 32);

Query: Data request, read-out MIC, for "Cc1nccn1CCN1C(=O)C(=O)c2ccccc21"
Response: 256

---

Test system: Staphylococcus aureus
Assay: Antibacterial activity against Staphylococcus aureus by broth microdilution method
Format: functional
metric-name: log10 MIC (log10 of the value in µg/mL)
Recorded MIC (log10, µg/mL)

// known answers, use as guide
INSERT INTO results (compound, obs_value) VALUES
  ('O=C(/C=C1\C(=O)N(CCn2cncn2)c2ccccc21)c1ccc(Cl)cc1', 2.71),
  ('Cc1nccn1CCN1C(=O)C(=O)c2ccccc21', 2.11),
  ('CCCc1nccn1CCN1C(=O)C(=O)c2ccccc21', 1.81),
  ('Cc1ccc(C(=O)CC2(O)C(=O)N(CCn3cncn3)c3ccccc32)cc1 (stereo unspecified)', 2.41),
  ('Cc1ccc(C(=O)/C=C2\C(=O)N(CCn3cncn3)c3ccccc32)cc1', 1.81),
  ('O=C1C(=O)N(CCn2cnc3ccccc32)c2ccccc21', 1.81),
  ('O=C1C(=O)N(CCn2nnc3ccccc32)c2ccccc21', 2.41),
  ('O=C1C(=O)N(CCn2cnc([N+](=O)[O-])c2)c2ccccc21', 2.11);

Query: What value of measured log10 MIC is listed for "O=C1C(=O)N(CCn2cncn2)c2ccccc21" ?
Response: 2.11

Query: Now try O=C(CC1(O)C(=O)N(CCn2cncn2)c2ccccc21)c1ccccc1 (stereo unspecified) .
Response: 2.11

Query: Then this compound: "Cc1cc2ncn(CCN3C(=O)C(=O)c4ccccc43)c2cc1C"
Response: 2.41

Query: Entry to check: O=C(CC1(O)C(=O)N(CCn2cncn2)c2ccccc21)c1ccc(Cl)cc1 (stereo unspecified)
Response: 2.11
